// reported Percent Effect per item
Target: Tyrosyl-tRNA synthetase, putative (Trypanosoma cruzi (strain CL Brener))
Sequence (whole entry): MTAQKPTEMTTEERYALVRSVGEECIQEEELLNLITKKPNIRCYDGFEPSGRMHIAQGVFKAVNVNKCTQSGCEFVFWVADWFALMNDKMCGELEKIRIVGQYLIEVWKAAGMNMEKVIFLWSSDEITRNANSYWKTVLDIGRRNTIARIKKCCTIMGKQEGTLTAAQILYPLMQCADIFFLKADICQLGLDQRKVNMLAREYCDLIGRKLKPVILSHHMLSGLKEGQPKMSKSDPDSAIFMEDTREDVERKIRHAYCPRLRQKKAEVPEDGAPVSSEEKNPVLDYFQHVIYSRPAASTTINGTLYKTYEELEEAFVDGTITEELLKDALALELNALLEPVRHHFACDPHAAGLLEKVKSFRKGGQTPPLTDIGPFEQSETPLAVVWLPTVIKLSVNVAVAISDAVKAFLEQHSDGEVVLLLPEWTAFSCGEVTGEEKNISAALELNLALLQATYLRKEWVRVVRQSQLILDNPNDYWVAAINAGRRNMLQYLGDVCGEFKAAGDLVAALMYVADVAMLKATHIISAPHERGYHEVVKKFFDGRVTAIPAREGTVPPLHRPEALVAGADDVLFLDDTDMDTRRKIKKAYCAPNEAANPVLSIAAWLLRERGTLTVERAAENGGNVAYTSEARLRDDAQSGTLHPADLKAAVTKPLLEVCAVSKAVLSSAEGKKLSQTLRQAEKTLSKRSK
Assay: Trypanosoma cruzi tyrosyl tRNA synthetase (TcYRS) _High Tyrosine SOP
Format: functional
Set-up: scale not given: in the data most compounds retested in dose-response had high values
Conditions: 30 µM
Only the number, expressed in %, is required.

>  <compound>
N#CCCN(C(=O)CN1CCCC1c1ccsc1)c1ccccc1F (centres undefined)

>  <Percent Effect, %>
3.96

$$$$
>  <compound>
O=C(c1cnccn1)N1CCN2C[C@H](OCc3ccccn3)C[C@H]2C1

>  <Percent Effect, %>
1.04

$$$$
>  <compound>
CC(C)c1nc(CC(=O)Nc2nc(CN3CCCCCC3)cs2)cs1

>  <Percent Effect, %>
10.5

$$$$

Enquiry: If you can, please state the reported Percent Effect value of `O=C(O)c1nnn(-c2ccc(F)c(F)c2)c1-c1ccncc1` .
Return: 2.13

Enquiry: # iterate: `c1cnc(NCc2noc3c2CN(CCN2CCCC2)CC3)nc1`
Return: 6.25

Enquiry: Param item: `Cc1ccc(CNCc2ccc(-n3nc(C)cc3C)nc2)cc1`
Return: 9.31

Enquiry: Same lookup for `CCCNC(=O)c1cnc(N(C)C)nc1COC` , please.
Return: 1.06

Enquiry: What about `CC(=O)N1CCCN(C(=O)NCCc2cc(Cl)cc(Cl)c2)CC1` ?
Return: 0

Enquiry: Now give it for Cc1ccc(C2CCCCCN2Cc2cn(C)nc2C)s1 (centres undefined) too.
Return: 0

Enquiry: Check `CCn1cnnc1CNC(=O)N1CCN(c2cccc(OC)c2)CC1` too.
Return: 12.6

Enquiry: Could you do the same for `Cc1nc(NCCc2ccc(Cl)cc2)cc(C(=O)N2CCOCC2)n1` , please?
Return: 7.53

Enquiry: Another compound to look at: `Cc1cccc(COC[C@H]2CC[C@H]3[C@H](CCN3C(=O)CC3CC3)O2)n1`
Return: 7.45

Enquiry: Please do the same for `COCc1noc(C2(c3ccc(OC)cc3)CCOCC2)n1` as well.
Return: 3.7
